system: Plasmodium berghei; assay: Screen against P. berghei liver stage (PbLuc), transformed with Luciferase, at 10uM; assay type: functional, HepG2; details: tested at 10 uM
The campaign covered roughly 69,000 compounds. About 8,600 (12%) showed an effect of 50% or more. The sample holds strong results, similar compounds and a random draw of the others, so the mix is not that of the screen.
Property name: INHIBITION (%)
# number only, unit % dropped from output

## Task Find INHIBITION (Plasmodium berghei) for the entry N#Cc1cccnc1NCCNC(=O)N1CCCC(N2CCCC2)C1 (stereo unspecified)
## Result 24.6

## Task Find INHIBITION (Plasmodium berghei) for the entry Cc1cccnc1NCCNC(=O)[C@H]1CNC[C@@H](C(=O)N2CCCC2)C1
## Result 18.5

###

tested on: Plasmodium berghei; assay: Screen against P. berghei liver stage (PbLuc), transformed with Luciferase, at 10uM; format: functional, HepG2; settings: tested at 10 uM
Out of some 69,000 compounds screened, about 8,600 (12%) showed an effect of 50% or more. The sample as a whole holds a higher share of strong results than the screen did.
Property name: INHIBITION (%)
Dear colleague, please return just the value in %, with no unit written.

Compound: CN1CCOCC2(CCCN(C(=O)c3cn(C)cn3)C2)C1 (stereo unspecified)
Subject of test: Plasmodium berghei
Unit string: %
Experimental result: -57.7

Compound: Cc1ccc(CCC(=O)N2CCCC(c3cc(C(N)=O)[nH]n3)C2)cc1 (stereo unspecified)
Subject of test: Plasmodium berghei
Unit string: %
Experimental result: 48.1

Compound: CN(C)CCN1CCOCC2(CCCN(C(=O)c3cccc(O)c3)C2)C1 (stereo unspecified)
Subject of test: Plasmodium berghei
Unit string: %
Experimental result: 4.61

Compound: COc1cccc(CC(=O)N2CCCC(c3n[nH]c4nccnc34)C2)c1 (stereo unspecified)
Subject of test: Plasmodium berghei
Unit string: %
Experimental result: 2.71

Compound: c1cnc2[nH]nc(C3CCN(Cc4ccsc4)CC3)c2c1
Subject of test: Plasmodium berghei
Unit string: %
Experimental result: 22

Alright, here's another compound for you.
## Task # get_value(readout= INHIBITION, system= Plasmodium berghei) for Cc1cccc(CC(=O)N2CCCC(c3n[nH]c4nccnc34)C2)c1 (stereo unspecified)
## Result 50.8

###

tested on: Plasmodium berghei; assay: Screen against P. berghei liver stage (PbLuc), transformed with Luciferase, at 10uM; format: functional, HepG2; conditions: tested at 10 uM
Screen size: about 69,000 compounds; about 8,600 (12%) showed an effect of 50% or more. The entries come from a sample that favours strong results as a whole.
Property name: INHIBITION (%)
Write down the numeric answer in % and omit the unit.

Worked set:
Compound: COc1ccc(C(=O)N2CCC(Oc3ccc(C)cc3)(C(=O)O)CC2)o1
Subject of test: Plasmodium berghei
Unit string: %
INHIBITION: 14.3

Compound: Cc1ccccc1OCC1CCCN(c2cc(N)nc(N)n2)C1 (stereo unspecified)
Subject of test: Plasmodium berghei
Unit string: %
INHIBITION: 73.8

Compound: CC(C)Cn1cc(C(=O)NC2CCS(=O)(=O)C2)c2ccccc2c1=O (stereo unspecified)
Subject of test: Plasmodium berghei
Unit string: %
INHIBITION: 28.6

Compound: OC1(CN2CCC(Cc3ncccn3)CC2)CCCCC1
Subject of test: Plasmodium berghei
Unit string: %
INHIBITION: 14.6

Compound: CCN(CC)c1ncc(CNC2CCc3nc(C(C)C)nn3C2)s1 (stereo unspecified)
Subject of test: Plasmodium berghei
Unit string: %
INHIBITION: -3.54

Compound: COc1ccc(C(=O)N2CCC(Oc3cccc(C)c3)(C(=O)O)CC2)o1
Subject of test: Plasmodium berghei
Unit string: %
INHIBITION: 40.2

Compound: COc1cccc(CCN2C[C@H]3CCNCC[C@H]3S2(=O)=O)c1
Subject of test: Plasmodium berghei
Unit string: %
INHIBITION: 24.6

Compound: OCc1csc(N2CCCC(COc3cccc(F)c3)C2)n1 (stereo unspecified)
Subject of test: Plasmodium berghei
Unit string: %
INHIBITION: 39.9

## Task Param item = COc1cccc(CCC2CCCN(Cc3ncc[nH]3)C2)c1 (stereo unspecified) ; retrieve measured INHIBITION.
## Result 65.7

## Task Recorded INHIBITION of CCNC(=O)c1ccnc(N2CCCC(COc3ccccc3C)C2)c1 (stereo unspecified) , please.
## Result 30.9

## Task What measured INHIBITION goes with Cc1nc(CN(C)C)cc(N2CCCC(COc3ccc(F)cc3)C2)n1 (stereo unspecified) ?
## Result 79.5

###

tested on: Plasmodium berghei; assay: Screen against P. berghei liver stage (PbLuc), transformed with Luciferase, at 10uM; assay type: functional, HepG2; details: tested at 10 uM
In all, about 69,000 compounds went through this assay and about 8,600 (12%) showed an effect of 50% or more. For the sample, strong results were picked, then their nearest neighbours and some compounds at random.
Lab note: cut-off is 20%. Strictly less in INHIBITION is True. Exactly 20% or more is False.

Before answering, review these 2 worked examples.
Compound: CS(=O)(=O)CCNC1CCCN(Cc2noc(C3CC3)n2)C1 (stereo not drawn)
Cat: False
//
Compound: N#Cc1cccc(NC(=O)N[C@H](CO)Cc2ccc(O)cc2)c1
Cat: False

## Task Hello, I'm reviewing records and need to know if INHIBITION of CC(NC(=O)NCCCn1cncn1)c1ccc(C#N)cc1 (stereo not drawn) is below 20%. Could you check?
## Result False

## Task INHIBITION under 20%? Item: CSCc1cc(C(=O)NC2(C#N)CC2)ccc1F
## Result False

## Task Consider COCCNc1ncnc2c1CCN(C(=O)CC1CCC(=O)N1)CC2 (stereo not drawn) . Does its INHIBITION lie strictly below 20%?
## Result False

## Task Is the reported INHIBITION for N#CC1(NC(=O)c2ccc(F)c(Br)c2)CCSC1 (stereo not drawn) strictly below 20%?
## Result False

## Task Determine whether this compound shows INHIBITION lower than 20% (ties excluded): COc1ccccc1C(=O)N1CCN(C(=O)CCCc2cn[nH]c2)CC1
## Result False

## Task A record lists CCOC(=O)CNC(=O)Cn1c(-c2ccoc2)nc(C)c1C . Is its INHIBITION below 20%?
## Result True

## Task Consider O=C(c1ccoc1)N1CCOCC2(CCN(C3CCOCC3)C2)C1 (stereo not drawn) . Does its INHIBITION lie strictly below 20%?
## Result False

## Task Please indicate whether the reported INHIBITION of CCS(=O)(=O)N1CCc2onc(COc3ccccn3)c2C1 is strictly below 20%.
## Result True

###

test system: Plasmodium berghei; assay: Screen against P. berghei liver stage (PbLuc), transformed with Luciferase, at 10uM; assay type: functional, HepG2; details: tested at 10 uM
About 8,600 (12%) of roughly 69,000 compounds showed an effect of 50% or more. The list comes from a sample in which strong results are over-represented; it also holds close analogues and randomly drawn compounds.
# binning rule on INHIBITION: low value (below 10%), medium value (10% to below 40%), high value (40% or more)

Record excerpt, results attached:
Compound: CCCOCC(=O)N1CCCN(Cc2csc(CC)n2)CC1
Cat: low value
//
Compound: CCn1nccc1CNc1[nH]cnc2nc(C)nc1-2
Cat: medium value
//
Compound: COCCN1CCCC(c2ccnc3c(C(N)=O)cnn23)C1 (stereo not drawn)
Cat: medium value
//
Compound: Cc1n[nH]cc1C(=O)N1CCCC(n2nnc3cc(F)ccc32)C1 (stereo not drawn)
Cat: medium value
//
Compound: CCc1nc(CN2CCN(C(=O)c3cc(C)no3)CC2)cs1
Cat: low value
//
Compound: O=C(COc1ccccc1)NCCNC(=O)c1scnc1Cl
Cat: medium value
//
Compound: Cc1nc(CN2CCN(C(=O)CCc3ccco3)CC2)cs1
Cat: high value
//
Compound: O=S(=O)(c1cccc(F)c1)N1C[C@H]2CC[C@@H](C1)N(Cc1ccccc1)C2
Cat: high value

Read the next record carefully.
## Task Could you place O=C(O)Cn1ccc(=O)c2cc(F)ccc21 in its proper category? Many thanks.
## Result medium value

###

INHIBITION for assorted molecules
tested on: Plasmodium berghei; experiment: Screen against P. berghei liver stage (PbLuc), transformed with Luciferase, at 10uM; type: functional, HepG2; settings: tested at 10 uM
Among all 69,000 compounds or so, about 8,600 (12%) showed an effect of 50% or more. This is one part of a sample in which strong results are shown more often than they occur.
All answers are understood in %, so give the number only.

Molecule: CC(O)C(=O)N1CCC(c2[nH]ncc2-c2ccccc2)CC1 (stereo unspecified)
INHIBITION, %: 1.66

Molecule: Cc1ccc(-c2cn[nH]c2C2CCCN(c3nccc(N)n3)C2)cc1 (stereo unspecified)
INHIBITION, %: 47.2

Molecule: CC(CNC(=O)OC(C)(C)C)N(C)C(=O)COc1ccccc1C#N (stereo unspecified)
INHIBITION, %: 15.9

Molecule: Cc1c(F)cccc1S(=O)(=O)NCC(C)(C)CC(C)O (stereo unspecified)
INHIBITION, %: -11.9

Molecule: O=C(NCC1CC1)c1ccc(NC(=O)c2ccco2)cc1
INHIBITION, %: -64.3

Molecule: Cc1ccc(-c2cn[nH]c2C2CCCN(c3ccnc(C)n3)C2)cc1 (stereo unspecified)
INHIBITION, %: 65.3

Molecule: CC(O)CC(C)(C)CNS(=O)(=O)c1cccc(Cl)c1C#N (stereo unspecified)
INHIBITION, %: 53.5

Molecule: COCC(=O)NCc1cc(=O)n2c(n1)CN(Cc1ccncc1)CCC2
INHIBITION, %: 22.2

## Task // fetch Plasmodium berghei INHIBITION for Cc1nccc(N2CCCC(c3nnc(Cn4ccnc4C)n3C)C2)n1 (stereo unspecified)
## Result 1.74

## Task For the record Cc1ccc(-c2cn[nH]c2C2CCCN(c3cc(N)ncn3)C2)cc1 (stereo unspecified) , what value of INHIBITION is listed for Plasmodium berghei?
## Result 75.4

## Task Please provide the recorded INHIBITION for Cc1c[nH]nc1C1CCCN(c2cnccn2)C1 (stereo unspecified) , tested on Plasmodium berghei.
## Result 4.73
